Data origin, for the record: patent US10173974B1

# methodDescription: in vitro
# measurementConditions: African green monkey
valueKind: CC50

Problem: Which value of CC50 has been reported for CO[C@H]1/C=C/O[C@@]2(C)Oc3c(C)c(O)c4c(O)c(c(/C=N/N5CCN(C)CC5)c(O)c4c3C2=O)NC(=O)/C(C)=C\C=C\[C@H](C)[C@H](O)[C@@H](C)[C@@H](O)[C@@H](C)[C@H](OC(C)=O)[C@@H]1C [RMP, rifampicin, reference compound] in the records?
Result: > 100 µM
